Where do the numbers come from? From PubChem BioAssay (NCI).

Tested on: SK-MEL-5 melanoma
Assay: NCI tumour cell line growth inhibition, 48 h
Listing of recorded TGI by entry.
Numeric answer only, unit µM assumed.

{"compound": "COc1ccc2c(c1)OCC1Cc3cc4c(cc3OC21)OCO4 (stereo not drawn)", "TGI, µM": 57.2}
{"compound": "COc1ccc(OC)c(C(=O)c2cccc(C(=O)c3cc(OC)ccc3OC)n2)c1", "TGI, µM": 50.5}

// moving on: another record for TGI
get_value(item= `CCOC(=O)c1ccc2c(c1)nc(-c1ccc(Cl)cc1)n2-c1cc(C(C)(C)C)[nH]n1` , readout=TGI) returns 3.39

---

# Lookup of reported TGI keyed by entry
System: KM20L2 colon
Assay: NCI tumour cell line growth inhibition, 48 h

{"molecule": "O=C(COc1ccc2c(=O)cc(-c3ccc(Cl)cc3)oc2c1)N1CCN(c2ccccc2)CC1", "target_or_system": "KM20L2 colon", "TGI": "> 100 µM"}
{"molecule": "Cn1nc(-c2ccccc2)c(C(=O)/C=C/c2ccc(F)cc2)c(N2CCCC2)c1=O", "target_or_system": "KM20L2 colon", "TGI": "28.3 µM"}
{"molecule": "CC12CCC(=O)N1c1cnccc1N2 (stereo not given)", "target_or_system": "KM20L2 colon", "TGI": "> 100 µM"}
{"molecule": "CN[C@H](C)[C@@H](OC)c1ccccc1", "target_or_system": "KM20L2 colon", "TGI": "> 100 µM"}
{"molecule": "Nc1cc(C(=O)NC2C3CC4CC(C3)CC2C4)[nH]c(=S)n1 (stereo not given)", "target_or_system": "KM20L2 colon", "TGI": "> 100 µM"}
{"molecule": "COc1ccc(C(=O)c2c(C(C(=O)c3ccc(OC)cc3)C(=O)c3ccc(OC)cc3)n(C(=O)c3ccc(OC)cc3)c3ccccc23)cc1", "target_or_system": "KM20L2 colon", "TGI": "> 100 µM"}

Lookup result for `CCc1ccccc1NC(=O)C1=C(C)NC(C)=C(C(=O)Nc2ccccc2CC)C1c1cccc([N+](=O)[O-])c1` ; measured TGI: > 100 µM

// sample `COc1ccc(/C=N/Nc2nc(-c3cc4oc(=O)n(C)c4cc3Cl)cs2)cc1OC` , its TGI was > 100 µM

The measured TGI associated with CSc1nc2c(nc(N)n2C2OC(CO)C(O)C(O)C2O)c(=O)n1C (stereo not given) reads > 100 µM

molecule `Cc1nc(N)nc(N)c1CCCCc1ccccc1` , TGI observed: 63.3 µM

Lab note: measured TGI of CC[C@]1(O)CC2CN(CCCc3c([nH]c4ccccc34)[C@@](C(=O)OC)(c3cc4c(cc3OC)N(C)C3C45CCN4CC=C[C@](CC)(C45)C(OC(C)=O)[C@@]3(O)C(=O)OC)C2)C1 (stereo not given in full) was 1.05 µM

Field TGI (entry `CCOc1ccc(Nc2nc(C)c(C(=O)/C=C/c3ccc(Cl)cc3Cl)s2)cc1` ) reads 52.2 µM

Per the record, `O=C(/C=C/c1ccccc1F)c1ccc([N+](=O)[O-])cc1` has TGI of > 100 µM

Quick note, TGI for N#CCC(=O)N/N=C(\CCN1CCCC1)CC(c1ccccc1)c1c(O)c2ccccc2oc1=O (stereo not given) landed at > 100 µM

Reported TGI of `Clc1ccc(OCCSCCCCCCCCCCSCCOc2ccc(Cl)cc2)cc1` : > 100 µM

---

Tested on: SW-620 colon
Experiment: NCI tumour cell line growth inhibition, 48 h; in the data active = GI50 below about 0.43 µM; inactive = the rest
Form entry, call: pick from 1.0 = active, 0.0 = inactive

{"compound": "O=C(O)CN(CCN(CC(=O)O)CC(=O)O)CC(=O)O", "target_or_system": "SW-620 colon", "cat": 0.0}
{"compound": "CCN(Cc1ccccc1F)c1ccc(CO)c(Cl)c1", "target_or_system": "SW-620 colon", "cat": 0.0}
{"compound": "CS(=O)(=O)Nc1ccc(Nc2c3ccccc3nc3cc([N+](=O)[O-])ccc23)cc1", "target_or_system": "SW-620 colon", "cat": 0.0}
{"compound": "CCOC(=O)C1=C(C)N=C2SC=C(c3ccccc3)N2[C@H]1c1cn[nH]c1-c1ccc(Cl)cc1", "target_or_system": "SW-620 colon", "cat": 0.0}

Pending compound:
Look up the recorded call for CC12OC(CC(O)C1O)n1c3ccccc3c3c4c(c5c6ccccc6n2c5c31)C(=O)N(CCN1CCCC1)C4=O (stereo not given) in this test.
1.0

---

Each entry below carries its reported TGI.
Tested on: ACHN renal
Assay: NCI tumour cell line growth inhibition, 48 h

// below: answered molecules
{"molecule": "COc1ccc(N=NC(=O)NC(CC(C)C)C(=O)NC(Cc2ccccc2)C(=O)O)cc1 (centres undefined)", "target_or_system": "ACHN renal", "result_value": "> 100 µM"}
{"molecule": "Nc1ncc(-c2ccc3ncnc(N4CCc5ccc(Cl)cc54)c3c2)cn1", "target_or_system": "ACHN renal", "result_value": "> 100 µM"}
{"molecule": "Cc1cc2c(cc1C)[n+](=O)c(C(=O)C(C)(C)C)c(C(F)(F)F)n2[O-]", "target_or_system": "ACHN renal", "result_value": "34.5 µM"}
{"molecule": "COc1ccc(C(=O)c2c(C(C(=O)c3ccc(OC)cc3)C(=O)c3ccc(OC)cc3)n(C(=O)c3ccc(OC)cc3)c3ccccc23)cc1", "target_or_system": "ACHN renal", "result_value": "> 100 µM"}
{"molecule": "O=C(/C=C/c1ccccc1F)c1ccc([N+](=O)[O-])cc1", "target_or_system": "ACHN renal", "result_value": "> 100 µM"}
{"molecule": "Cc1[nH]c(-c2ccccc2)c(O)c1C(=O)OC12CC3CC(CC(C3)C1)C2", "target_or_system": "ACHN renal", "result_value": "29.7 µM"}
{"molecule": "COP(=O)(CC(=O)C1OC(C)(C)OC1C(O)COCc1ccccc1)OC (centres undefined)", "target_or_system": "ACHN renal", "result_value": "> 100 µM"}
{"molecule": "CC(C)=CC1CC(=O)C1(C)Sc1ccccc1 (centres undefined)", "target_or_system": "ACHN renal", "result_value": "> 100 µM"}
{"molecule": "O=C1/C(=N\\n2c(-c3ccncc3)n[nH]c2=S)c2cc(Cl)ccc2N1CN1CCCCC1", "target_or_system": "ACHN renal", "result_value": "> 100 µM"}
{"molecule": "COc1cc2c3c(n(CCCn4ccnc4)c(=O)c2cc1OC)-c1cc2c(cc1C3=O)OCO2", "target_or_system": "ACHN renal", "result_value": "> 100 µM"}

Could you now look at the following molecule, please?
Lab note: CC[C@]1(O)CC2CN(CCCc3c([nH]c4ccccc34)[C@@](C(=O)OC)(c3cc4c(cc3OC)N(C)C3C45CCN4CC=C[C@](CC)(C45)C(OC(C)=O)[C@@]3(O)C(=O)OC)C2)C1 (some centres undefined) gave TGI of > 10 µM

---

Tested on: SK-MEL-28 melanoma
Assay: NCI tumour cell line growth inhibition, 48 h
Label rule, in plain words: TGI of 30 µM and up is 1 (yes), under 30 µM is 0 (no).

{"molecule": "S=c1sc2c(s1)SCc1cccc(n1)CSc1sc(=S)sc1SCc1cccc(n1)CS2", "cat": "1 (yes)"}
{"molecule": "CCOC(=O)C1C(=O)CN2CCc3c([nH]c4ccccc34)C12C(=O)OCC (centres undefined)", "cat": "1 (yes)"}
{"molecule": "COc1ccc([As]=[As]c2ccc(OC)c(NCS(=O)(=O)O)c2)cc1NCS(=O)(=O)O (centres undefined)", "cat": "0 (no)"}

Dear colleague, could you confirm whether `CCOC(=O)C(Cc1c(C=O)[nH]c2ccccc12)(NC(=O)c1ccccc1)C(=O)OCC` has TGI at or above 30 µM?
1 (yes)

Exam item: decide whether the reported TGI for `COc1cc(-c2nc3nc(N4CCN(C)CC4)ccc3[nH]2)c(OC)c2[nH]c(CO)nc12` is at least 30 µM.
1 (yes)

Item N#CC1(Cc2ccccc2)CCCCN1C(=O)c1ccccc1 (centres undefined) with TGI of 30 µM or above?
1 (yes)

Form field: TGI at least 30 µM? Entry: `CS(=O)(=O)c1ccc(Oc2cc(F)cc(C#N)c2)c2c1[C@H](O)[C@H](F)[C@H]2F`
1 (yes)

Kindly determine if TGI recorded for `S=c1ncc2n[nH]nc2[nH]1` is above or exactly 30 µM.
1 (yes)

Could you tell me if the measured TGI of `O=C(O)c1ccc(Cc2ccccc2C(=O)O)cc1` reaches 30 µM or more?
1 (yes)

Say whether `CC(=O)Nc1nc2ncc(C=O)nc2c(=O)[nH]1` shows TGI of 30 µM or more.
1 (yes)

Dear colleague, could you confirm whether CC12OC(CC(O)C1O)n1c3ccccc3c3c4c(c5c6ccccc6n2c5c31)C(=O)N(CCN1CCCC1)C4=O (centres undefined) has TGI at or above 30 µM?
0 (no)

Tell me whether TGI is at least 30 µM here: C=C1C(=O)OC2C1C(=O)C/C(C)=C/CCC1(C)OC21 (centres undefined)
1 (yes)
